Molecular target: T1, human SIRPα variant 2 (human, UniProt P78324 31-504)
T1 construct: full length ORF on transfected CHO-K1 cells; also called hSIRPαV2; SIRPαV2
T1 sequence (P78324 other isoform, or with tags, fused parts or gaps mutant limits assumed): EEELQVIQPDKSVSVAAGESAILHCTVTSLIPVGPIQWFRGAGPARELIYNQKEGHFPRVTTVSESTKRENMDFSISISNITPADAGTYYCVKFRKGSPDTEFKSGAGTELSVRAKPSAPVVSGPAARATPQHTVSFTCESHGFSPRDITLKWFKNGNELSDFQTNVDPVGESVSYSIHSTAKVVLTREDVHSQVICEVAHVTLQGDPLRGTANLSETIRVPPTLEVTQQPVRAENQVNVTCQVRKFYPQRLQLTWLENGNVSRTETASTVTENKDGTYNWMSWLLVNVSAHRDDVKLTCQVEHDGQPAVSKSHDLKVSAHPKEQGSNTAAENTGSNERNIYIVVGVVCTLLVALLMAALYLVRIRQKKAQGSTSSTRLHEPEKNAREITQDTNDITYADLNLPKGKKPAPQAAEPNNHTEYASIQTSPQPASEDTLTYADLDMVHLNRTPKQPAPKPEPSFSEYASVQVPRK
Assay: CELISA, CHO-K1 transfectants; average of two experiments
Quantity name: pEC50
Give bare numbers, as −log10 of the molar value.

hSIRPα.50A.H4L1 (antibody, human IgG4 S228P, kappa, V domains shown, human IgG4 S228P, kappa; also called hSIRPα.50H4L1) VH: EVQLQQSGAELVKPGASVKVSCKASGFTFTNYYIHWVRQRPGQGLEWMGWIYPGNVNTKYNEKFKAKATITADKSTSTAYMELSSLTSEDTAVYYCARPTIIATDFDVWGQGTTVTVSS VL: DIVLTQSPSFLSASVGDRVTITCKASQGVGTAVGWYQQKPGKAPKLLIYWASTRHTGVPDRFSGSGSGTEFTLTISSLQPEDFAAYYCQQYSTYPFTFGGGTKLEIKR | 9.17

I'm hoping you can list pEC50 for every binder here, please.
1. hSIRPα.50A.H3L4 (antibody, human IgG4 S228P, kappa, V domains shown, human IgG4 S228P, kappa; also called hSIRPα.50H3L4) VH: EVQLVQSGAEVVKPGASVMISCKASGFTFTNYYIHWVRQRPGQGLEWIGWIYPGNVNTKYNEKFKARVIMTADKSTSTVYMQLSSLTSEDTAVYYCARPTIIATDFDVWGQGTLVTVSS VL: DIQMTQSPSSLSASVGDRVTITCKASQGVGTAVGWYQKKPGKVPKLLIYWASTRHTGVPDRFSGSGSGTDFTLTINGLQPEDVATYYCQQYSTYPFTFGGGTKLEIKR
2. hSIRPα.50A.H4L3 (antibody, human IgG4 S228P, kappa, V domains shown, human IgG4 S228P, kappa; also called hSIRPα.50H4L3) VH: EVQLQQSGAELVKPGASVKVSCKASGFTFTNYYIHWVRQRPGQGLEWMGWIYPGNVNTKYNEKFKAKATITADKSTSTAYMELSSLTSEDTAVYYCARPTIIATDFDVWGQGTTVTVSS VL: ELVMTQSPSSLSASVGDRVTITCKASQGVGTAVGWYQQKPGKAPKLLIYWASTRHTGVPDRFSGSGSGTDFTLAISSLQPEDIADYYCQQYSTYPFTFGGGTKVEIKR
3. hSIRPα.50A.H4L5 (antibody, human IgG4 S228P, kappa, V domains shown, human IgG4 S228P, kappa; also called hSIRPα.50H4L5) VH: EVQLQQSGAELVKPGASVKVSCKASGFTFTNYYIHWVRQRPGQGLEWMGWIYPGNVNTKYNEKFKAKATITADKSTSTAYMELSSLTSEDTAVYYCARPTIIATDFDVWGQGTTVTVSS VL: DIVLTQSPSFLSASVGDRVTITCKASQGVGTAVGWYQQKPGKSPKLLIYWASTRHTGVPDRFSGSGSGTEFTLTISNLQPEDFAAYYCQQYSTYPFTFGGGTKLEIKR
4. hSIRPα.50A.H1L3 (antibody, human IgG4 S228P, kappa, V domains shown, human IgG4 S228P, kappa; also called hSIRPα.50H1L3) VH: EVQLQQSGAEVVKPGASVKVSCKASGFTFTNYYIHWVRQAPGQGLEWIGWIYPGNVNTKYNEKFKARVTITADKSTSTAYMDLSSLRSEDTAVYYCARPTIIATDFDVWGQGTTVTVSS VL: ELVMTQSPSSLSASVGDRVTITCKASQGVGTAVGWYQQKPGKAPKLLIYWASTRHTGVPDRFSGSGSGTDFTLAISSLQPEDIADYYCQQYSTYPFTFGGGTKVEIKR
5. hSIRPα.50A.H4L2 (antibody, human IgG4 S228P, kappa, V domains shown, human IgG4 S228P, kappa; also called hSIRPα.50H4L2) VH: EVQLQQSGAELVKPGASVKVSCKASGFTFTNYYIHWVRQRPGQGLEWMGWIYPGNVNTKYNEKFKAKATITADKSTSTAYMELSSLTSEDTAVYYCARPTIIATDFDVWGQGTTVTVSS VL: DIVMTQSPSSLSASVGDRVTITCKASQGVGTAVGWYQQKPGKAPKLLIYWASTRHTGVPDRFSGSGSGTDFTLTISNLQPEDFADYYCQQYSTYPFTFGGGTKVEIKR
6. hSIRPα.50A.H4L4 (antibody, human IgG4 S228P, kappa, V domains shown, human IgG4 S228P, kappa; also called hSIRPα.50H4L4) VH: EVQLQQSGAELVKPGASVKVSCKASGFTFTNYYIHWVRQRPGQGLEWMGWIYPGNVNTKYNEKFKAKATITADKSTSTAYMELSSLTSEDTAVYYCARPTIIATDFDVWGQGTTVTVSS VL: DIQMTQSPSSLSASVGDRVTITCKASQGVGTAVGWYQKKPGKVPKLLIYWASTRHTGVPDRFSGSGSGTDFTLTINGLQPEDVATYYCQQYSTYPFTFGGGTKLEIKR
7. hSIRPα.50A.H3L5 (antibody, human IgG4 S228P, kappa, V domains shown, human IgG4 S228P, kappa; also called hSIRPα.50H3L5) VH: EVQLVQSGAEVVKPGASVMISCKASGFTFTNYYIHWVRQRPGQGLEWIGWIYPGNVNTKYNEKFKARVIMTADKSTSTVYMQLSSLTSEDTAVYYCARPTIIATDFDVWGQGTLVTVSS VL: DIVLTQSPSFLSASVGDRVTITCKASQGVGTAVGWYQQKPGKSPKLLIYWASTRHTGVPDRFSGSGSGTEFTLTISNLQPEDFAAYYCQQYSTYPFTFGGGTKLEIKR
8. hSIRPα.50A.H1L2 (antibody, human IgG4 S228P, kappa, V domains shown, human IgG4 S228P, kappa; also called hSIRPα.50H1L2) VH: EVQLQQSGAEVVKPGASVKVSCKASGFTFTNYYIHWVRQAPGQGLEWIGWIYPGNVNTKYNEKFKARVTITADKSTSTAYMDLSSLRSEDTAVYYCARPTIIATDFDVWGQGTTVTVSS VL: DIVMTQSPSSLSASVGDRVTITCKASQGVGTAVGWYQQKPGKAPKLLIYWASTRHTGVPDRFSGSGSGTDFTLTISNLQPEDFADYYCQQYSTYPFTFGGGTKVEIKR

Key:
1. 8.82
2. 9.05
3. 9.18
4. 8.96
5. 9.19
6. 8.91
7. 9.06
8. 9.09

I'm hoping you can list pEC50 for every binder here, please.
1. hSIRPα.50A.H5L2 (antibody, human IgG4 S228P, kappa, V domains shown, human IgG4 S228P, kappa; also called hSIRPα.50H5L2) VH: EVQLVQSGAEVVKPGASVKVSCKASGFTFTNYYIHWVRQAPEQGLEWIGWIYPGNVNTKYNEKFKARVTMTADKSTSTAYMELSSLRSDDMAVYYCARPTIIATDFDVWGQGTTVTVSS VL: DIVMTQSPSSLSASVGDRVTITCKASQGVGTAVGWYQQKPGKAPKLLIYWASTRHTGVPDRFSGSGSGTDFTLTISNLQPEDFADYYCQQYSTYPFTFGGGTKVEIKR
2. hSIRPα.50A.H5L3 (antibody, human IgG4 S228P, kappa, V domains shown, human IgG4 S228P, kappa; also called hSIRPα.50H5L3) VH: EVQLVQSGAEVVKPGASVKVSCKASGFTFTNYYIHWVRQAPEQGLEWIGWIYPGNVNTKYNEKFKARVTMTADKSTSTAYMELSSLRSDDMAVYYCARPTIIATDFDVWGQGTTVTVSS VL: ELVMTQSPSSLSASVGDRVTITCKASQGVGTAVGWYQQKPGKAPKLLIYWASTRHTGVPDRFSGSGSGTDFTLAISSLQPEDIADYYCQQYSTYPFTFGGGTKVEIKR

Key:
1. 9.24
2. 9.10
